TGI listing for selected molecules.
tested on: K-562 leukemia; experiment: NCI tumour cell line growth inhibition, 48 h

{"molecule": "O=C(/C=C/N1CCN(c2cccc(C(F)(F)F)c2)CC1)c1ccc(Cl)cc1Cl", "TGI": "> 100 µM"}
{"molecule": "O=c1oc(-c2ccc(O)c(O)c2)cc2cc(O)cc(O)c12", "TGI": "> 100 µM"}
{"molecule": "Cn1c(=O)n(-c2ccc(C(C)(C)C#N)cc2)c2c3cc(-c4cnc5ccccc5c4)ccc3ncc21", "TGI": "> 100 µM"}
{"molecule": "Cc1cs/c(=N\\C(P(=O)(O)O)P(=O)(O)O)n1C", "TGI": "> 100 µM"}
{"molecule": "COC(=O)Cc1c(C2=Nc3ccccc3C2(O)CC(=O)OC)[nH]c2ccccc12 (stereo unspecified)", "TGI": "> 100 µM"}
{"molecule": "Clc1ccc2c(Cl)ncnc2c1", "TGI": "> 100 µM"}
{"molecule": "O=C1c2cc3c(cc2CC12Cc1cc4c(cc1C2)CCC4)CCC3", "TGI": "> 100 µM"}
{"molecule": "CCCCCCCCCCCCCCCCOCC(CC(F)(F)P(=O)(O)O)OC(C)=O (stereo unspecified)", "TGI": "> 50 µM"}
{"molecule": "COC(=O)/C(C#N)=C1\\N=NNN1CCCN1CCOCC1", "TGI": "> 100 µM"}
{"molecule": "O=C1OC(c2ccc(O)cc2)(c2ccc(O)cc2)c2cccc3cccc1c23", "TGI": "61.3 µM"}
{"molecule": "COc1cc(C2C3=C(COC3=O)N(CCO)c3cc4c(cc32)CCC4)cc(OC)c1O (stereo unspecified)", "TGI": "> 32.5 µM"}
{"molecule": "CC[C@]12C=CCN3CC[C@]4(C(=C(C(=O)OC)C1)Nc1cc(O)ccc14)[C@@H]32", "TGI": "> 100 µM"}
{"molecule": "Cc1ccc2c(c1)c(=O)c1c(NCCN(C)C)ccc3nnn2c31", "TGI": "19.6 µM"}
{"molecule": "CC1=NNC(N)=N/C1=C/C(Sc1ccc(Cl)cc1)c1cccs1 (stereo unspecified)", "TGI": "67.9 µM"}
{"molecule": "Cc1ccc(NCSc2ccc(Cl)cc2)cc1", "TGI": "> 100 µM"}
{"molecule": "CN1C(=O)c2cc(Cl)nc3c(NC(=O)c4cccc(Cl)c4)c(Cl)c(NC(=O)c4cccc(Cl)c4)c1c23", "TGI": "2.57 µM"}
